meta.source: ChEMBL document CHEMBL1126322

Assay: Inhibitory activity against monkey renin in vitro.
pIC50: −log10 of the molar value.
Reported pIC50 is given for each of the following molecules.

A selection of reference data follows.
>>> observed("CCOC(NC(=O)C(Cc1cccc2ccccc12)Cc1cccc2ccccc12)C(=O)N[C@@H](CC(C)C)[C@@H](O)CC(=O)NC[C@@H](C)CC (stereo in doubt; 22)")
"< 6.00"
>>> observed("CC[C@H](C)CNC(=O)C[C@H](O)[C@H](CC(C)C)NC(=O)C(N)NC(=O)C(Cc1cccc2ccccc12)Cc1cccc2ccccc12 (stereo in doubt; 31)")
"< 6.00"

Now let's try a different one.
Query: Using the record for CC[C@H](C)CNC(=O)C[C@H](O)[C@H](CC(C)C)NC(=O)C(NC(=O)C(Cc1cccc2ccccc12)Cc1cccc2ccccc12)NC(C)C (stereo in doubt; 35) , report its pIC50.
Result: < 6.00
